# TARGET_ENTITY: Histone deacetylase 4 (Homo sapiens)
# TEST: Inhibition on human recombinant HDAC4 at 10 uM measured after 20 min by luminescence glo assay
Exercise: for every item that follows, state its recorded inhibition.

## Input inhibition lookup needed for `Cc1c(Br)cc(C(=O)N[C@@H](C(=O)Nc2ccc3c(c2)/C(=C/c2cnc[nH]2)C(=O)N3)c2ccccc2)c(=O)n1Cc1ccc(F)c(F)c1` , thanks.
## Output < 30%

## Input inhibition lookup needed for `Cc1c(Br)cc(C(=O)NCC(=O)Nc2ccc3c(c2)/C(=C/c2cnc[nH]2)C(=O)N3)c(=O)n1Cc1ccc(F)c(F)c1` , thanks.
## Output < 30%

## Input inhibition lookup needed for `Cc1ccc(C(=O)N[C@@H](C(=O)Nc2ccc3c(c2)/C(=C/c2cnc[nH]2)C(=O)N3)c2ccccc2)c(=O)n1Cc1ccc(F)c(F)c1` , thanks.
## Output < 30%

## Input inhibition lookup needed for `Cc1ccc(C(=O)NCC(=O)Nc2ccc3c(c2)/C(=C/c2cnc[nH]2)C(=O)N3)c(=O)n1Cc1ccc(F)c(F)c1` , thanks.
## Output < 30%

## Input inhibition lookup needed for `O=C(CCNC(=O)c1cccn(Cc2ccc(F)c(F)c2)c1=O)Nc1ccc2c(c1)/C(=C/c1cnc[nH]1)C(=O)N2` , thanks.
## Output < 30%

## Input inhibition lookup needed for O=C1Nc2ccc(NC(=O)[C@H](NC(=O)c3cccn(Cc4ccc(F)c(F)c4)c3=O)c3ccccc3)cc2/C1=C/c1cnc[nH]1 (stereo in doubt) , thanks.
## Output < 30%

## Input inhibition lookup needed for `O=C1Nc2ccc(NC(=O)c3cccc(NC(=O)c4cccn(Cc5ccc(F)c(F)c5)c4=O)c3)cc2/C1=C/c1cnc[nH]1` , thanks.
## Output < 30%

## Input inhibition lookup needed for `O=C(CCCNC(=O)c1cccn(Cc2ccc(F)c(F)c2)c1=O)Nc1ccc2c(c1)/C(=C/c1cnc[nH]1)C(=O)N2` , thanks.
## Output < 30%

----------
# TEST: AUC in CD-1 mouse at 10 mg/kg iv measured by UPLC-MS/MS method
# Type: ADME, organism-based
# Parameters: dose 10 mg/kg
# TEST_SETTINGS: in vivo
MEASUREMENT_LABEL: AUC (ng·h/mL)
Numeric only. Scale: ng·h/mL

## Input AUC lookup needed for O=C1Nc2ccc(NC(=O)[C@H](NC(=O)c3cccn(Cc4ccc(F)c(F)c4)c3=O)c3ccccc3)cc2/C1=C/c1cnc[nH]1 (stereo in doubt) , thanks.
## Output 4220

----------
# TEST: AUC (infinity) in CD-1 mouse at 10 mg/kg iv measured by UPLC-MS/MS method
# Type: ADME, organism-based
# Set-up: time infinity, route intravenous, dose 10 mg/kg
# TEST_SETTINGS: in vivo
MEASUREMENT_LABEL: AUC (ng·h/mL)
Numeric only. Scale: ng·h/mL

## Input AUC lookup needed for O=C1Nc2ccc(NC(=O)[C@H](NC(=O)c3cccn(Cc4ccc(F)c(F)c4)c3=O)c3ccccc3)cc2/C1=C/c1cnc[nH]1 (stereo in doubt) , thanks.
## Output 5720

----------
Exercise: for every item that follows, state its recorded pIC50.
# Tested on: PC-3
# TEST: Cytotoxicity against human PC-3 cells measured after 72 hrs by MTT assay
# Type: functional, cell-based
# TEST_SETTINGS: PC-3, 72 h
pIC50: −log10 of the molar value.

## Input pIC50 lookup needed for `O=C(N[C@@H](COc1ccc2[nH]c(=O)[nH]c2c1)c1ccccc1)c1cccn(Cc2ccc(F)c(F)c2)c1=O` , thanks.
## Output < 4.52

## Input pIC50 lookup needed for `NCC(=O)Nc1ccc(-n2nc(C(F)(F)F)cc2-c2ccc3c(ccc4ccccc43)c2)cc1` , thanks.
## Output 5.19

## Input pIC50 lookup needed for `Cc1c(Br)cc(C(=O)N[C@@H](C(=O)Nc2ccc3c(c2)/C(=C/c2cnc[nH]2)C(=O)N3)c2ccccc2)c(=O)n1Cc1ccc(F)c(F)c1` , thanks.
## Output < 4.52

## Input pIC50 lookup needed for `O=C(O)[C@]1(Cc2cccc(Nc3nccs3)n2)CC[C@@H](Oc2cccc(Cl)c2F)CC1` , thanks.
## Output < 4.52

## Input pIC50 lookup needed for O=C1Nc2ccc(NC(=O)[C@H](NC(=O)c3cccn(Cc4ccc(F)c(F)c4)c3=O)c3ccccc3)cc2/C1=C/c1cnc[nH]1 (stereo in doubt) , thanks.
## Output < 4.52

## Input pIC50 lookup needed for `Cc1ccc(C(=O)N[C@@H](C(=O)Nc2ccc3c(c2)/C(=C/c2cnc[nH]2)C(=O)N3)c2ccccc2)c(=O)n1Cc1ccc(F)c(F)c1` , thanks.
## Output < 4.52

----------
# TARGET_ENTITY: {'v': 'CYP2C19', 'o': 'p', 'q': 'Inhibition of CYP2C19 (unknown origin)'} (Homo sapiens)
# Sequence (P33261 whole entry): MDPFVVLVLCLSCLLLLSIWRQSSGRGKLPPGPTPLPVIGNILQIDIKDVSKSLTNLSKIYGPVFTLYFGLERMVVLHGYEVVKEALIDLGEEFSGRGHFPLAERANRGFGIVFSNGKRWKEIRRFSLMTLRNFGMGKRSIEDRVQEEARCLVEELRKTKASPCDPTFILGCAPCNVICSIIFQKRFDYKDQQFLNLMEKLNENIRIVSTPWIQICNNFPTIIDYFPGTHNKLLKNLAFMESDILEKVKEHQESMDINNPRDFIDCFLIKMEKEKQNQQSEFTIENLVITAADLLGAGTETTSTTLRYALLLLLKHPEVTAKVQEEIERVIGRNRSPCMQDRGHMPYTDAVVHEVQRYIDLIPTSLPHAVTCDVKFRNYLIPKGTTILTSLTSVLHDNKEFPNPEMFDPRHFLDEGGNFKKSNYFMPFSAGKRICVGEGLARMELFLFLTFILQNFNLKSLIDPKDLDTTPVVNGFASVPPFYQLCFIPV
# TEST: Inhibition of CYP2C19 (unknown origin) at 10 uM pre-incubated for 30 min followed by addition of NADPH and measured after 30 min by Luminescence based plate reader method relative to control
# Type: ADME
# TEST_SETTINGS: time 60 min
Exercise: for every item that follows, state its recorded inhibition at 0.5 h, 10 µM.

## Input Reported inhibition at 0.5 h, 10 µM for {'v': 'CYP2C19', 'o': 'p', 'q': 'Inhibition of CYP2C19 (unknown origin)'} (Homo sapiens), given `Cc1c(Br)cc(C(=O)N[C@@H](C(=O)Nc2ccc3c(c2)/C(=C/c2cnc[nH]2)C(=O)N3)c2ccccc2)c(=O)n1Cc1ccc(F)c(F)c1` ?
## Output < 45%

## Input Reported inhibition at 0.5 h, 10 µM for {'v': 'CYP2C19', 'o': 'p', 'q': 'Inhibition of CYP2C19 (unknown origin)'} (Homo sapiens), given `Cc1ccc(C(=O)NCC(=O)Nc2ccc3c(c2)/C(=C/c2cnc[nH]2)C(=O)N3)c(=O)n1Cc1ccc(F)c(F)c1` ?
## Output > 90%

## Input Reported inhibition at 0.5 h, 10 µM for {'v': 'CYP2C19', 'o': 'p', 'q': 'Inhibition of CYP2C19 (unknown origin)'} (Homo sapiens), given `O=C(CCNC(=O)c1cccn(Cc2ccc(F)c(F)c2)c1=O)Nc1ccc2c(c1)/C(=C/c1cnc[nH]1)C(=O)N2` ?
## Output > 90%

----------
Exercise: for every item that follows, state its recorded inhibition at 10 µM.
# TARGET_ENTITY: {'v': 'hERG (KCNH2)', 'o': 'p', 'q': 'Inhibition of human ERG at 10 uM'} (Homo sapiens, UniProt Q12809)
# Sequence (Q12809 whole entry): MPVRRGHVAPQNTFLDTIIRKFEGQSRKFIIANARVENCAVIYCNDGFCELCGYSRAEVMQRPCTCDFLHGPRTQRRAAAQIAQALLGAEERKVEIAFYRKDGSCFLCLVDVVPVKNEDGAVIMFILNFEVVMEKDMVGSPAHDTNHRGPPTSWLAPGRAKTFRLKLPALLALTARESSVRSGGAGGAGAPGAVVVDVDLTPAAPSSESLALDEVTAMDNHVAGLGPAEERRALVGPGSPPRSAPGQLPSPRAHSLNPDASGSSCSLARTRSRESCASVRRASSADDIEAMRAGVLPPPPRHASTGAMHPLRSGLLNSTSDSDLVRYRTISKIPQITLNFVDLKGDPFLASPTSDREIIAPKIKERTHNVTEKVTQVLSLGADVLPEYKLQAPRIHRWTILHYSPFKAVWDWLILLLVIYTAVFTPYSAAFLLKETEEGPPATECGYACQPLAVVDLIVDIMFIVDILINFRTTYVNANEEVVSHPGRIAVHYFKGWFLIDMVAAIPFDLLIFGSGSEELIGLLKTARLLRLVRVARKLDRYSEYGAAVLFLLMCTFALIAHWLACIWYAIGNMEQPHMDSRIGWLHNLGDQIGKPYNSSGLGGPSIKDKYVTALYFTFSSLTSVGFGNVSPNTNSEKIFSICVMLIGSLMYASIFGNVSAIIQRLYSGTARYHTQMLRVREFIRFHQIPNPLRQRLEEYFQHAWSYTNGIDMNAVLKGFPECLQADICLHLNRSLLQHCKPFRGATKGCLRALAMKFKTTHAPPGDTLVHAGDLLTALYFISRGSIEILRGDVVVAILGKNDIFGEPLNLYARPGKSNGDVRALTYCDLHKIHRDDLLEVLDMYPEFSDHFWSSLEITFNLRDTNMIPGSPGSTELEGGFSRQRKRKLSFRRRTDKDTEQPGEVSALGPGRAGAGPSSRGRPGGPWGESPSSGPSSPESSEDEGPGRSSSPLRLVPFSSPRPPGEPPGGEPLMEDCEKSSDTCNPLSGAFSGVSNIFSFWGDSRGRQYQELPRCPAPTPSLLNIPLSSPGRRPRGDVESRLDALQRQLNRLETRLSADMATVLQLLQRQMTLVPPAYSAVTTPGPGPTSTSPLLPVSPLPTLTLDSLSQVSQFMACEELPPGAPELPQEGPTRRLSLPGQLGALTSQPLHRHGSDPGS
# TEST: Inhibition of human ERG at 10 uM relative to control
Numeric only. Scale: %

## Input inhibition at 10 µM lookup needed for `Cc1ccc(C(=O)N[C@@H](C(=O)Nc2ccc3c(c2)/C(=C/c2cnc[nH]2)C(=O)N3)c2ccccc2)c(=O)n1Cc1ccc(F)c(F)c1` , thanks.
## Output 56

## Input inhibition at 10 µM lookup needed for `O=C(CCCNC(=O)c1cccn(Cc2ccc(F)c(F)c2)c1=O)Nc1ccc2c(c1)/C(=C/c1cnc[nH]1)C(=O)N2` , thanks.
## Output 53

----------
# Test system: 786-0
# TEST: Cytotoxicity against human 786-0 cells measured after 72 hrs by MTT assay
# Type: functional, cell-based
# TEST_SETTINGS: 786-0, 72 h
pIC50: −log10 of the molar value.
Exercise: for every item that follows, state its recorded pIC50.

## Input pIC50 lookup needed for `O=C(O)[C@]1(Cc2cccc(Nc3nccs3)n2)CC[C@@H](Oc2cccc(Cl)c2F)CC1` , thanks.
## Output < 4.52

## Input pIC50 lookup needed for O=C1Nc2ccc(NC(=O)[C@H](NC(=O)c3cccn(Cc4ccc(F)c(F)c4)c3=O)c3ccccc3)cc2/C1=C/c1cnc[nH]1 (stereo in doubt) , thanks.
## Output < 4.52

## Input pIC50 lookup needed for `Cc1ccc(C(=O)N[C@@H](C(=O)Nc2ccc3c(c2)/C(=C/c2cnc[nH]2)C(=O)N3)c2ccccc2)c(=O)n1Cc1ccc(F)c(F)c1` , thanks.
## Output < 4.52

## Input pIC50 lookup needed for `O=C(N[C@@H](COc1ccc2[nH]c(=O)[nH]c2c1)c1ccccc1)c1cccn(Cc2ccc(F)c(F)c2)c1=O` , thanks.
## Output < 4.52

## Input pIC50 lookup needed for `NCC(=O)Nc1ccc(-n2nc(C(F)(F)F)cc2-c2ccc3c(ccc4ccccc43)c2)cc1` , thanks.
## Output 5.54

## Input pIC50 lookup needed for `Cc1c(Br)cc(C(=O)N[C@@H](C(=O)Nc2ccc3c(c2)/C(=C/c2cnc[nH]2)C(=O)N3)c2ccccc2)c(=O)n1Cc1ccc(F)c(F)c1` , thanks.
## Output < 4.52

----------
# TARGET_ENTITY: {'v': 'CYP1A2', 'o': 'p', 'q': 'Inhibition of CYP1A2 (unknown origin)'} (Homo sapiens)
# Sequence (P05177 whole entry): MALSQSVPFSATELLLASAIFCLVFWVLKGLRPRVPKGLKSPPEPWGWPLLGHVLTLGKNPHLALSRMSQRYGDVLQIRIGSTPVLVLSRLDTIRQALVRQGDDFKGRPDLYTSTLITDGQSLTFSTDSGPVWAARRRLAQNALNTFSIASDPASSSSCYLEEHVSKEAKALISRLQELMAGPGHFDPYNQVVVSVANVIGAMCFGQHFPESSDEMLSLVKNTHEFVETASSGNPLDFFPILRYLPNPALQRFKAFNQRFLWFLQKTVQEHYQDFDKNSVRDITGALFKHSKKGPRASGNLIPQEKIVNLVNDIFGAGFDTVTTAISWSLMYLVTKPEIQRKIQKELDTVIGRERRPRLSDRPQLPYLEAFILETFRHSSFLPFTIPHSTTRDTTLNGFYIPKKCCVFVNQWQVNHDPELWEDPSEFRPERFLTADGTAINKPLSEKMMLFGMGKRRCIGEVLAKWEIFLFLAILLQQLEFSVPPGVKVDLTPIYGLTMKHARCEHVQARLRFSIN
# TEST: Inhibition of CYP1A2 (unknown origin) at 10 uM pre-incubated for 30 min followed by addition of NADPH and measured after 30 min by Luminescence based plate reader method relative to control
# Assay type: ADME
# TEST_SETTINGS: time 60 min
MEASUREMENT_LABEL: inhibition at 0.5 h, 10 µM

## Input inhibition at 0.5 h, 10 µM lookup needed for `Cc1ccc(C(=O)NCC(=O)Nc2ccc3c(c2)/C(=C/c2cnc[nH]2)C(=O)N3)c(=O)n1Cc1ccc(F)c(F)c1` , thanks.
## Output > 90%

## Input inhibition at 0.5 h, 10 µM lookup needed for `Cc1c(Br)cc(C(=O)N[C@@H](C(=O)Nc2ccc3c(c2)/C(=C/c2cnc[nH]2)C(=O)N3)c2ccccc2)c(=O)n1Cc1ccc(F)c(F)c1` , thanks.
## Output < 45%

## Input inhibition at 0.5 h, 10 µM lookup needed for `O=C(CCNC(=O)c1cccn(Cc2ccc(F)c(F)c2)c1=O)Nc1ccc2c(c1)/C(=C/c1cnc[nH]1)C(=O)N2` , thanks.
## Output > 90%
